- testedOn: Aurora kinase A (AURKA) (Homo sapiens)
- Construct: endogenous in cells; host or cells: HeLa LgBit (AURKA-HiBit KI), CRISPR/Cas9 knock-in at the endogenous AURKA locus
- assaySummary: Luciferase assay for AURKA in HeLa LgBit (AURKA-HiBit KI) cell line
- Type: cell-based
- testParameters: 10 nM compound, HeLa LgBit (AURKA-HiBit KI) cells, measured after 12 hours
valueType: luminescence value (Level)

Reference set (8 entries):
compound	valueType	val
O=C1CCC(c2ccc(N3CCN(C(=O)CN4CCC(NC(=O)c5ccc(Nc6ncc(F)c(Nc7ccc(C(=O)Nc8ccccc8Cl)cc7)n6)cc5)CC4)CC3)cc2)C(=O)N1 (centres unmarked)	luminescence value (Level)	A (A is <0.3)
O=C1CCC(Nc2cc(F)c(N3CCN(CCC4CCN(NC(=O)c5ccc(Nc6ncc(F)c(Nc7ccc(NC(=O)c8ccccc8F)cc7)n6)cc5F)CC4)CC3)cc2F)C(=O)N1 (centres unmarked)	luminescence value (Level)	B (B is 0.3 to 0.5)
O=C1CCC(Nc2ccc(N3C[C@@H]4[C@@H](CN5CCC(NC(=O)c6ccc(Nc7ncc(F)c(Nc8ccc(C(=O)Nc9ccccc9Cl)cc8)n7)cc6)CC5)[C@@H]4C3)cc2)C(=O)N1 (some centres unmarked)	luminescence value (Level)	B (B is 0.3 to 0.5)
O=C1CCC(Nc2ccc(N3CCCN(C[C@H]4CC[C@H](NC(=O)c5ccc(Nc6ncc(F)c(Nc7ccc(C(=O)Nc8ccccc8Cl)cc7)n6)cc5)CC4)CC3)cc2)C(=O)N1 (some centres unmarked)	luminescence value (Level)	B (B is 0.3 to 0.5)
O=C1CCC(c2ccc(N3CCC(N4CCC5(CC4)CC(NC(=O)Cc4ccc(Nc6ncc(F)c(Nc7ccc(C(=O)Nc8ccccc8Cl)cc7)n6)cc4)C5)CC3)c(F)c2)C(=O)N1 (centres unmarked)	luminescence value (Level)	A (A is <0.3)
Cc1cc(N2CCN(CCC3CCN(NC(=O)c4ccc(Nc5ncc(F)c(Nc6ccc(C(=O)Nc7ccccc7Cl)cc6)n5)cc4)CC3)CC2)ccc1NC1CCC(=O)NC1=O (centres unmarked)	luminescence value (Level)	B (B is 0.3 to 0.5)
O=C1CCC(c2ccc(N3CCN(CCC4CCN(NC(=O)c5ccc(Nc6ncc(F)c(Nc7ccc(C(=O)Nc8ccccc8F)cc7)n6)cc5)CC4)CC3)cc2)C(=O)N1 (centres unmarked)	luminescence value (Level)	A (A is <0.3)
O=C1CCC(c2ccc(N3CCN(CC[C@H]4CC[C@H](NC(=O)c5ccc(Nc6ncc(F)c(Nc7ccc(C(=O)Nc8ccccc8Cl)cc7)n6)cc5)CC4)CC3)cc2)C(=O)N1 (some centres unmarked)	luminescence value (Level)	A (A is <0.3)

IN: Sample O=C1CCC(Nc2ccc(N3CCN(C[C@H]4CC[C@H](NC(=O)c5ccc(Nc6ncc(F)c(Nc7ccc(C(=O)Nc8ccccc8Cl)cc7)n6)cc5)CC4)CC3)cc2)C(=O)N1 (some centres unmarked) — what was its luminescence value (Level)?
OUT: B (B is 0.3 to 0.5)

IN: Can you share its luminescence value (Level)? I mean this compound: COc1cc(N2CCN(CCC3CCN(NC(=O)c4ccc(Nc5ncc(F)c(Nc6ccc(C(=O)Nc7ccccc7Cl)cc6)n5)cc4F)CC3)CC2)c(F)cc1C1CCC(=O)NC1=O (centres unmarked)
OUT: C (C is 0.5 to 0.7)

IN: // returns reported luminescence value (Level) for input "O=C1CC[C@H](NC(=O)c2ccc(N3CCN(CCC4CCN(NC(=O)c5ccc(Nc6ncc(F)c(Nc7ccc(C(=O)Nc8ccccc8Cl)cc7)n6)cc5)CC4)CC3)cc2F)C(=O)N1"
OUT: B (B is 0.3 to 0.5)

IN: Tell me the measured luminescence value (Level) of O=C1CCC(c2ccc(N3CCN(CCC4CCN(NC(=O)c5ccc(Nc6ncc(F)c(Nc7ccc(C(=O)Nc8ccccc8Cl)cc7)n6)cc5F)CC4)CC3)cc2)C(=O)N1 (centres unmarked) , please.
OUT: B (B is 0.3 to 0.5)

IN: luminescence value (Level) for COc1cc(C(=O)NN2CCC(CCN3CCN(c4ccc(C5CCC(=O)NC5=O)cc4)CC3)CC2)ccc1Nc1ncc(F)c(Nc2ccc(C(=O)Nc3ccccc3Cl)cc2)n1 (centres unmarked) ?
OUT: C (C is 0.5 to 0.7)

###

- testedOn: Aurora kinase A (AURKA) (Homo sapiens)
- Construct: endogenous in cells; host or cells: HeLa LgBit (AURKA-HiBit KI), CRISPR/Cas9 knock-in at the endogenous AURKA locus
- assaySummary: Luciferase assay for AURKA in HeLa LgBit (AURKA-HiBit KI) cell line
- Format: cell-based
- testParameters: 100 nM compound, HeLa LgBit (AURKA-HiBit KI) cells, measured after 12 hours
valueType: luminescence value (Level)

compound	valueType	val
O=C1CCC(c2ccc(N3CC(CN4CCC(NC(=O)c5ccc(Nc6ncc(F)c(Nc7ccc(C(=O)Nc8ccccc8Cl)cc7)n6)cc5)CC4)C3)cc2)C(=O)N1 (stereo not shown) [Compound 8]	luminescence value (Level)	A (A is <0.2)
O=C1CCC(c2ccc(N3CCC4(CC3)CC(C3CCN(NC(=O)c5ccc(Nc6ncc(F)c(Nc7ccc(C(=O)Nc8ccccc8Cl)cc7)n6)cc5)CC3)C4)cc2)C(=O)N1 (stereo not shown) [Compound 60]	luminescence value (Level)	B (B is 0.2 to 0.4)
O=C1CCC(Nc2ccc(N3CCC(CN4CCC5(CCN(C(=O)c6ccc(Nc7ncc(F)c(Nc8ccc(C(=O)Nc9ccccc9Cl)cc8)n7)cc6)C5)C4)CC3)cc2)C(=O)N1 (stereo not shown) [Compound 32]	luminescence value (Level)	B (B is 0.2 to 0.4)
O=C1CCC(c2ccc(N3CCC(CN4CCC(CNC(=O)c5ccc(Nc6ncc(F)c(Nc7ccc(C(=O)Nc8ccccc8Cl)cc7)n6)cc5)CC4)CC3)cc2)C(=O)N1 (stereo not shown) [Compound 62]	luminescence value (Level)	A (A is <0.2)

IN: For Aurora kinase A (AURKA) (Homo sapiens), provide luminescence value (Level) of O=C1CCC(c2ccc(N3CCN(CCN4CCC(COc5ccc(Nc6ncc(F)c(Nc7ccc(C(=O)Nc8ccccc8Cl)cc7)n6)cc5)CC4)CC3)cc2)C(=O)N1 (stereo not shown) [Compound 99] please.
OUT: B (B is 0.2 to 0.4)

IN: Form: Entry = O=C1CCC(Nc2ccc(N3CCC(CN4CC5(C4)CN(C(=O)c4ccc(Nc6ncc(F)c(Nc7ccc(C(=O)Nc8ccccc8Cl)cc7)n6)cc4)C5)CC3)cc2)C(=O)N1 (stereo not shown) [Compound 31] | System = Aurora kinase A (AURKA) (Homo sapiens) | luminescence value (Level) = ____
OUT: B (B is 0.2 to 0.4)

###

- testedOn: Aurora kinase A (AURKA) (Homo sapiens, UniProt O14965)
- Construct: endogenous in cells; host or cells: HeLa LgBit (AURKA-HiBit KI), CRISPR/Cas9 knock-in at the endogenous AURKA locus
- Sequence (O14965 whole entry): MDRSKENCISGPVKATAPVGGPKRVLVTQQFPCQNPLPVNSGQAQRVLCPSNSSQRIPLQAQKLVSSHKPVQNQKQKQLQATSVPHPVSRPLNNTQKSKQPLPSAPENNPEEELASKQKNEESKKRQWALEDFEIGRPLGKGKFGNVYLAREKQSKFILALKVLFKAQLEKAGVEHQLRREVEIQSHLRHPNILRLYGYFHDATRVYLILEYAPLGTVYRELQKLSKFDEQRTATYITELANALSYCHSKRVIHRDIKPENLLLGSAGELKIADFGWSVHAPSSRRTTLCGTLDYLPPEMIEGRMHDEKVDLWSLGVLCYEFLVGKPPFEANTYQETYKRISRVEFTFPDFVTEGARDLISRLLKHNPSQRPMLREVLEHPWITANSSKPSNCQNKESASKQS
- assaySummary: Luciferase assay for AURKA in HeLa LgBit (AURKA-HiBit KI) cell line
- Type: cell-based
- testParameters: 10 nM compound, HeLa LgBit (AURKA-HiBit KI) cells, measured after 12 hours
valueType: luminescence value (Level)

compound	valueType	val
O=C1CCC(c2ccc(N3CCC(N4CCC5(CC4)CC(NC(=O)c4ccc(Nc6ncc(F)c(Nc7ccc(C(=O)Nc8ccccc8Cl)cc7)n6)cc4)C5)CC3)c(F)c2)C(=O)N1 (centres unmarked)	luminescence value (Level)	B (B is 0.3 to 0.5)
O=C1CCC(c2ccc(N3CCN(CCN4CC[C@@H](NC(=O)c5ccc(Nc6ncc(F)c(Nc7ccc(C(=O)Nc8ccccc8Cl)cc7)n6)cc5)C4)CC3)cc2)C(=O)N1 (some centres unmarked)	luminescence value (Level)	B (B is 0.3 to 0.5)
CN(C(=O)c1ccc(Nc2nc(Nc3ccc(C(=O)NN4CCC(CCN5CCN(c6ccc(C7CCC(=O)NC7=O)cc6)CC5)CC4)cc3)ncc2F)cc1)c1ccccc1Cl (centres unmarked)	luminescence value (Level)	B (B is 0.3 to 0.5)
O=C1CCC(c2ccc(N3CCC(CN4CCC5(CC4)CC(NC(=O)c4ccc(Nc6ncc(F)c(Nc7ccc(C(=O)Nc8ccccc8Cl)cc7)n6)cc4)C5)CC3)c(F)c2)C(=O)N1 (centres unmarked)	luminescence value (Level)	B (B is 0.3 to 0.5)
O=C1CCC(Nc2ccc(N3CCC(CN4C[C@H]5C[C@H](NC(=O)c6ccc(Nc7ncc(F)c(Nc8ccc(C(=O)Nc9ccccc9Cl)cc8)n7)cc6)C[C@H]5C4)CC3)cc2)C(=O)N1 (some centres unmarked)	luminescence value (Level)	B (B is 0.3 to 0.5)

IN: # query: luminescence value (Level) of entry CN(CC1CCN(c2ccc(C3CCC(=O)NC3=O)cc2)CC1)[C@H]1CC[C@H](NC(=O)c2ccc(Nc3ncc(F)c(Nc4ccc(C(=O)Nc5ccccc5Cl)cc4)n3)cc2)CC1 (some centres unmarked)
OUT: A (A is <0.3)

IN: Which luminescence value (Level) is listed for CN(CC1CCN(c2ccc(C3CCC(=O)NC3=O)cc2F)CC1)C1CCN(NC(=O)c2ccc(Nc3ncc(F)c(Nc4ccc(C(=O)Nc5ccccc5Cl)cc4)n3)cc2)CC1 (centres unmarked) ?
OUT: A (A is <0.3)

IN: # luminescence value (Level) lookup, item "O=C1CC[C@@H](Nc2ccc(N3CCN(CCC4CCN(NC(=O)c5ccc(Nc6ncc(F)c(Nc7ccc(C(=O)Nc8ccccc8Cl)cc7)n6)cc5)CC4)CC3)c(F)c2)C(=O)N1"
OUT: A (A is <0.3)

IN: Entry under review: O=C1CCC(c2ccc(N3CCN(CCN4CC[C@H](NC(=O)c5ccc(Nc6ncc(F)c(Nc7ccc(C(=O)Nc8ccccc8Cl)cc7)n6)cc5)C4)CC3)cc2)C(=O)N1 (some centres unmarked) . Reported luminescence value (Level)?
OUT: B (B is 0.3 to 0.5)
